System: BT-549
Assay: NCI tumour cell line growth inhibition, 48 h
Activity calls are given as the source filed them. Rule as the data show it: active = GI50 up to about 1.1 µM and inactive = higher.
Field 'call' accepts label 1 = active, label 0 = inactive

Field: example entries. Status: answers known.
| Compound | Target or system | Category |
| --- | --- | --- |
| N#CC(C/C=C/c1ccccc1)NNC(=O)c1c(Cl)c(Cl)c(Cl)c(Cl)c1-c1nc2cc(C(=O)c3ccccc3)ccc2[nH]1 (centres undefined) | BT-549 | label 0 |
| CCC(=O)NC(Nc1cccc(F)c1)(C(F)(F)F)C(F)(F)F | BT-549 | label 0 |
| CC(=O)Oc1ccc(/C=C/C(=O)O[C@H]2CCCC[C@@H]2OC(=O)/C=C/c2ccc(OC(C)=O)c(OC(C)=O)c2)cc1OC(C)=O | BT-549 | label 0 |
| O=C1CSC(/C=C/c2ccccc2)N1c1nc2cc3sc(N4C(=O)CSC4/C=C/c4ccccc4)nc3cc2s1 (centres undefined) | BT-549 | label 0 |
| COC(=O)c1ccccc1C1CN=NC12Cc1cc(C)cc(C)c1C2=O (centres undefined) | BT-549 | label 0 |
| O=C(c1ccco1)N1CCCN(C(=O)c2ccco2)C1=S | BT-549 | label 0 |
| Cc1c(CCN2CCOCC2)c(N2CCOCC2)n2c(nc3ccccc32)c1C#N | BT-549 | label 0 |
| COc1ccc2cc3c4cc5c(cc4cc[n+]3cc2c1OC)OCO5 | BT-549 | label 0 |

input: How did this test come out for Cc1nc(SCC(=O)Nc2ccc(Cl)cc2)c2sc(=S)n(-c3ccccc3)c2n1 ?
output: label 0

input: How did this test come out for CC(=O)N(C(C)=O)n1c(Cc2ccc(Cl)cc2)nn(C(C)=O)c1=O ?
output: label 0

input: How did this test come out for Clc1ccc(/C(=C\c2ccccc2)Cn2ccnc2)cc1 ?
output: label 0

input: How did this test come out for FC(F)(F)c1ccc2nc(Sc3ccccn3)cnc2c1 ?
output: label 0

input: How did this test come out for Cc1cc(N(C)C)c2ccccc2[n+]1CCCCCCCCCC[n+]1c(C)cc(N(C)C)c2ccccc21.[O-][Cl+3]([O-])([O-])[O-].[O-][Cl+3]([O-])([O-])[O-] ?
output: label 1

input: How did this test come out for COc1ccc(/C=C2\CSC/C(=C\c3ccc(OC)c(OC)c3OC)C2=O)c(OC)c1OC ?
output: label 0

input: How did this test come out for Cc1cn([C@@H]2O[C@H](CO)[C@@H](O)[C@@H]2O)c(=O)[nH]c1=O ?
output: label 0

input: How did this test come out for COc1ccc(O)c(/C=N\Nc2ccccc2)c1 ?
output: label 0

input: How did this test come out for Cc1cc2c(c(/C=N/c3ccc(N(C)C)cc3)c1)OC1(C=C2)Oc2ccccc2C(=O)N1C (centres undefined) ?
output: label 0

input: How did this test come out for S=c1nc(N/N=C/c2cccs2)c2cn[nH]c2[nH]1 ?
output: label 0

input: How did this test come out for Cc1ccc([S+](c2ccccc2)c2cc(C)ccc2C)cc1.O=C(OC(C(=O)[O-])C(OC(=O)c1ccccc1)C(=O)O)c1ccccc1 (centres undefined) ?
output: label 0

====

Listing of recorded GI50 by entry.
System: KM12
Experiment: NCI tumour cell line growth inhibition, 48 h
The source made the active and inactive calls. Cut-off read from the data, not from the text of the source: active = GI50 up to about 1.1 µM and inactive = higher. Starred links: 1 amine or outer side, 2 acyl side, 3 side chain; linkers in the order of their positions; H or OH if unused. Non-standard residues stand in square brackets, D forms with d. Residues, ends and D or L forms follow the SMILES beside them. X35 = C=CCC(O[*:1])C(=O)[*:2]; NMeV = CN[CH](C(=O)O)C(C)C; NMeA = CN[CH](C)C(=O)O; βAla = NCCC(=O)O

| Compound | Target or system | GI50 |
| --- | --- | --- |
| CN1C(=O)C(C(=O)Nc2ccccn2)C2C[C@@]1(C)Oc1ccccc12 (some centres undefined) | KM12 | > 100 µM (inactive) |
| C=CCC1OC(=O)CCNC(=O)C(C)N(C)C(=O)C(C(C)C)N(C)C(=O)C(C(C)CC)NC(=O)C2CCCN2C1=O (centres undefined) (cyclo([X35]PI[NMeV][NMeA][βAla]); configuration not given here) | KM12 | 10.8 µM (inactive) |
| CC(C)(C)OC(=O)NCCCC(=O)NC1(c2cc3ccccc3s2)CCCCC1 | KM12 | 17 µM (inactive) |

So for Brc1cccc(C2ON=C(c3ccccc3)N2C23CC4CC(CC(C4)C2)C3)c1 (centres undefined) , the logged GI50 turned out to be > 10 µM (inactive)

So for Cc1cc(Cc2c(F)c(F)c(C(c3cc(C)no3)c3c(F)c(F)c(F)c(F)c3F)c(F)c2F)on1 (centres undefined) , the logged GI50 turned out to be 19.5 µM (inactive)

So for O=C=NCCCCCCN1C(=O)N2C(c3ccccc3)N(CCCCCCN=C=O)C(=O)N2C1c1ccccc1 (centres undefined) , the logged GI50 turned out to be > 100 µM (inactive)
